Origin of the recorded values: patent US20200283521A1

# system: T1, human C-KIT-Fc (human, UniProt P10721 26-524)
# T1 construct: also called biotinylated human C-KIT-Fc; not shown: Fc part not described
# procedure.details: direct ELISA;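 note: Plate-coated C-KIT-Fc (1 µg/ml) probed with antibodies for 1 hr, bound IgG detected via anti-human kappa-HRP and TMB, absorbance measured at 450 nm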
measured.metric: binding result

* MH5.32 (antibody, IgG1, V domains shown, IgG1) VH: QVQLVQSGAEVKKPGASVKVSCKASGYTFTNYYMNWVRQAPGQGLEWMGRIYPGAGNTYYAQKFQGRVTMTRDTSTSTVYMELSSLRSEDTAVYYCARGVWYFDEWGQGTLVTVSS VL: DIQMTQSPSSLSASVGDRVTITCRASQGIRTNLAWFQQKPGKAPKSLIYAASSLQSGVPSRFSGSGSGTDFTLTISSLQPEDFATYYCQQYANYPRTFGGGTKVEIK | binds
* MH5.3 (antibody, IgG1, V domains shown, IgG1) VH: QVQLVQSGAEVKKPGASVKVSCKASGYTFTDHYMNWVRQAPGQGLEWMGRIYPGTGNTYYAQKFQGRVTMTRDTSTSTVYMELSSLRSEDTAVYYCARGVWYYDYWGQGTLVTVSS VL: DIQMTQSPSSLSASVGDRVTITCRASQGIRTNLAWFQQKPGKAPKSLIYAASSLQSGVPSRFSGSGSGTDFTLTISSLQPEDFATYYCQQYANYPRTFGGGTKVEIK | binds
* MH5.25 (antibody, IgG1, V domains shown, IgG1) VH: QVQLVQSGAEVKKPGASVKVSCKASGYTFTDFYMNWVRQAPGQGLEWMGRIYPASGNTYYAQKFQGRVTMTRDTSTSTVYMELSSLRSEDTAVYYCARGVWYFDEWGQGTLVTVSS VL: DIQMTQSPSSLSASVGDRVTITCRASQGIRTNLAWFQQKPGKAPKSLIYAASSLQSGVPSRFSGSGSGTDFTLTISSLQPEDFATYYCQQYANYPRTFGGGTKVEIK | binds
